Tested on: TSU
Run Description: Cell growth inhibition (sulforhodamine B assay)
Assay type: cell-based
Experimental Parameters: Homo sapiens, 96 h, read-out: IC50 TSU
Property Name: pIC50
One number for each entry, as −log10 of the molar value.

Request: State the recorded pIC50 for this entry: N[C@@H](Cc1ccc(N(CCCl)CCCl)cc1)C(=O)O [Melphalan, reference compound]
Response: 5.40

* * *

I'd be grateful if you could share measured IC50 for these entries.
Test system: LNCaP
Run Description: Cell growth inhibition (sulforhodamine B assay)
Format: cell-based
Experimental Parameters: Homo sapiens, sulforhodamine B assay, 4 or 6 days treatment, read-out: IC50 LNCaP
Answers are plain numbers, in nM.

# count of solved cases: 2
Request: Requested field: IC50. Item: C[C@](O)(COc1ccc(NC(=O)CCl)cc1)C(=O)Nc1ccc([N+](=O)[O-])c(C(F)(F)F)c1 [Compound B]
Response: 4400

Request: Quick check: IC50 of O=c1[nH]cc(F)c(=O)[nH]1 [Compound 5-FU, fluorouracil, reference compound] ?
Response: 900

Attention now turns to another entry.
Request: Any idea what its IC50 is? The molecule is C[C@](O)(COc1ccc(NC(=O)CBr)cc1)C(=O)Nc1ccc([N+](=O)[O-])c(C(F)(F)F)c1 [Compound A]
Response: 1100

* * *

Please go through the items and note down their melting point.

See these solved cases before continuing.
Request: Dear colleague, I am looking for the recorded melting point of the following molecule: C[C@](O)(COc1ccc(NC(=O)CI)cc1)C(=O)Nc1ccc(C#N)c(C(F)(F)F)c1 (hydrate or solvate)
Response: 78 to 80 °C

Request: Find the recorded melting point belonging to C[C@](O)(COc1ccc(NC(=O)C(F)(F)F)cc1)C(=O)Nc1ccc([N+](=O)[O-])c(C(F)(F)F)c1 and report it.
Response: 58 to 60 °C

Hi! Can you tell me melting point for each of these molecules?
1. C[C@](O)(COc1ccc(NC(=O)C(Cl)(Cl)Cl)cc1)C(=O)Nc1ccc([N+](=O)[O-])c(C(F)(F)F)c1 (hydrate or solvate)
2. C[C@](O)(COc1ccc(N2C(=O)C=CC2=O)cc1)C(=O)Nc1ccc([N+](=O)[O-])c(C(F)(F)F)c1 (hydrate or solvate)

Response:
["59 to 61 °C", "82 to 84 °C"]
